test system: Bacillus subtilis ATCC 6633; assay: agar-plate disc-diffusion test; settings: grown on minimal nutrient agar; 1 mg/ml; 7 mm disc; 24-48 hours at 25-37° C.
Answer each item with its documented Size of Zone of Inhibition (mm) B. subtilis ATCC 6633, grown on minimal nutrient agar.
Give bare numbers, in mm.

CCC(C)CCCCCCC(=O)N[C@@H](Cc1c[nH]c2ccccc12)C(=O)N[C@@H](CC(N)=O)C(=O)N[C@@H](CC(=O)O)C(=O)N[C@@H]1C(=O)NCC(=O)N[C@@H](CCCNC(=O)CCC(=O)O)C(=O)N[C@@H](CC(=O)O)C(=O)N[C@H](C)C(=O)N[C@@H](CC(=O)O)C(=O)NCC(=O)N[C@H](CO)C(=O)N[C@@H]([C@H](C)CC(=O)O)C(=O)N[C@@H](CC(=O)c2ccccc2N)C(=O)O[C@@H]1C (stereo partly drawn) [Compound 15] : 25
CCCCCCC(=O)N[C@@H](Cc1c[nH]c2ccccc12)C(=O)N[C@@H](CC(N)=O)C(=O)N[C@@H](CC(=O)O)C(=O)N[C@@H]1C(=O)NCC(=O)N[C@@H](CCCN)C(=O)N[C@@H](CC(=O)O)C(=O)N[C@H](C)C(=O)N[C@@H](CC(=O)O)C(=O)NCC(=O)N[C@H](CO)C(=O)N[C@@H]([C@H](C)CC(=O)O)C(=O)N[C@@H](CC(=O)c2ccccc2N)C(=O)O[C@@H]1C [Compound 1] : 16

Could you now look at the following compound, please?
Return reported Size of Zone of Inhibition (mm) B. subtilis ATCC 6633, grown on minimal nutrient agar; argument: CCCCCCCCCCCCCC(=O)N[C@@H](Cc1c[nH]c2ccccc12)C(=O)N[C@@H](CC(N)=O)C(=O)N[C@@H](CC(=O)O)C(=O)N[C@@H]1C(=O)NCC(=O)N[C@@H](CCCN)C(=O)N[C@@H](CC(=O)O)C(=O)N[C@H](C)C(=O)N[C@@H](CC(=O)O)C(=O)NCC(=O)N[C@H](CO)C(=O)N[C@@H]([C@H](C)CC(=O)O)C(=O)N[C@@H](CC(=O)c2ccccc2N)C(=O)O[C@@H]1C [Compound 8]
28

* * *

test system: Staphylococcus aureus X400; type: cell-based; settings: methicillin-resistant strain; agar dilution; 2, 5, 17, 22 median of three tests; paired values two experiments
Would you kindly list MIC Staphylococcus aureus X400 for each of these compounds?
One number for each entry, in µg/mL.

CCCCCCCCCCCCCCCC(=O)N[C@@H](Cc1c[nH]c2ccccc12)C(=O)N[C@@H](CC(N)=O)C(=O)N[C@@H](CC(=O)O)C(=O)N[C@@H]1C(=O)NCC(=O)N[C@@H](CCCN)C(=O)N[C@@H](CC(=O)O)C(=O)N[C@H](C)C(=O)N[C@@H](CC(=O)O)C(=O)NCC(=O)N[C@H](CO)C(=O)N[C@@H]([C@H](C)CC(=O)O)C(=O)N[C@@H](CC(=O)c2ccccc2N)C(=O)O[C@@H]1C : 2
CCCCCCCCCCCCN[C@@H](Cc1c[nH]c2ccccc12)C(=O)N[C@@H](CC(N)=O)C(=O)N[C@@H](CC(=O)O)C(=O)N[C@@H]1C(=O)NCC(=O)N[C@@H](CCCN)C(=O)N[C@@H](CC(=O)O)C(=O)N[C@H](C)C(=O)N[C@@H](CC(=O)O)C(=O)NCC(=O)N[C@H](CO)C(=O)N[C@@H]([C@H](C)CC(=O)O)C(=O)N[C@@H](CC(=O)c2ccccc2N)C(=O)O[C@@H]1C [Compound 22, NTrp -(n-dodecyl)-A-21978C nucleus] : 1
CCCCC=CCCCCCCCC(=O)N[C@@H](Cc1c[nH]c2ccccc12)C(=O)N[C@@H](CC(N)=O)C(=O)N[C@@H](CC(=O)O)C(=O)N[C@@H]1C(=O)NCC(=O)N[C@@H](CCCN)C(=O)N[C@@H](CC(=O)O)C(=O)N[C@H](C)C(=O)N[C@@H](CC(=O)O)C(=O)NCC(=O)N[C@H](CO)C(=O)N[C@@H]([C@H](C)CC(=O)O)C(=O)N[C@@H](CC(=O)c2ccccc2N)C(=O)O[C@@H]1C : 2
CCCCCCCCC(=O)N[C@@H](Cc1c[nH]c2ccccc12)C(=O)N[C@@H](CC(N)=O)C(=O)N[C@@H](CC(=O)O)C(=O)N[C@@H]1C(=O)NCC(=O)N[C@@H](CCCN)C(=O)N[C@@H](CC(=O)O)C(=O)N[C@H](C)C(=O)N[C@@H](CC(=O)O)C(=O)NCC(=O)N[C@H](CO)C(=O)N[C@@H]([C@H](C)CC(=O)O)C(=O)N[C@@H](CC(=O)c2ccccc2N)C(=O)O[C@@H]1C : 4

Could you now consider this next compound?
Would you kindly share the measured MIC Staphylococcus aureus X400 for CCCCCCCC(=O)NCCC[C@@H]1NC(=O)CNC(=O)[C@@H](NC(=O)[C@H](CC(=O)O)NC(=O)[C@H](CC(N)=O)NC(=O)[C@H](Cc2c[nH]c3ccccc23)NC(=O)CCCCCCC)[C@@H](C)OC(=O)[C@H](CC(=O)c2ccccc2N)NC(=O)[C@H]([C@H](C)CC(=O)O)NC(=O)[C@@H](CO)NC(=O)CNC(=O)[C@H](CC(=O)O)NC(=O)[C@@H](C)NC(=O)[C@H](CC(=O)O)NC1=O ?
8
